B1: NELF-E aptamer (parent)
chain: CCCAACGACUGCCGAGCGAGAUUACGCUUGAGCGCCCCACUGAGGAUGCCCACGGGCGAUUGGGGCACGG

Variants of: B1
Test: HiTS-RAP
Conditions: with NELF-E (Drosophila)
pKd: −log10 of the molar value.
We use 8 as the dividing line for pKd: on or above the line is rule met, below is rule not met.

{"SEQUENCE_CHANGE": "C13G U61A", "LABEL_VALUE": "rule not met"}

Ask: Hi team, for C17U U22G , is the recorded pKd at or above 8?
Result: rule met

Ask: Hi team, for "U22A" , is the recorded pKd at or above 8?
Result: rule met

Ask: Hi team, for U22G A43G , is the recorded pKd at or above 8?
Result: rule not met

Ask: Hi team, for C17G C25G , is the recorded pKd at or above 8?
Result: rule met

Ask: Hi team, for "A43U" , is the recorded pKd at or above 8?
Result: rule not met

Ask: Hi team, for C13G C49U , is the recorded pKd at or above 8?
Result: rule not met

Ask: Hi team, for A21U A67G , is the recorded pKd at or above 8?
Result: rule met

Ask: Hi team, for C9G C66U , is the recorded pKd at or above 8?
Result: rule met
